MEASURED_QUANTITY: melting point

Solved cases (5 shown):
O=C1C(Cl)=C(N2CCN(C(=O)Nc3ccccc3Cl)CC2)C(=O)c2ccccc21: 160 to 163 °C
COc1cc(NC(=O)OCc2ccccc2)c(Cl)cc1-c1n[nH]c(=O)o1: 214 °C
O=C(O)c1ccc(-c2cnc(-c3ccc(Cl)cc3)o2)cc1: 268 to 270 °C
CC(=O)N(C)c1cccc(-c2ccc(Cl)nn2)c1: 118 to 120 °C
CC(c1oc2ccc(F)cc2c(=O)c1-c1cccc(F)c1)n1cnc2c(N)ncnc21 (stereo not drawn): 252 to 255 °C

Let us examine a further case.
Incoming: # input compound: `CC(C)Oc1ccc(Cl)c2c(=O)c3ccccc3sc12` ; wanted: its melting point
Outgoing: 91 to 93 °C

----------
MEASURED_QUANTITY: melting point

Cc1cc(C2CCN(C(=O)OC(C)(C)C)CC2)cnc1COc1ccc(S(C)(=O)=O)cc1: 130 to 132 °C
Cc1nn(C)c(NC(=O)Nc2ccccc2)c1C1=CCCC1: 204 °C
CCOC(=O)c1c2ccc(CC(=O)NOC(=O)NC)ccc-2c(C(=O)OCC)c1N: 222 to 224 °C

Incoming: # input compound: Cc1oc(-c2ccccc2)nc1CCOc1ccc(CC2SC(=O)NC2=O)c2ccccc12 (centres undefined) ; wanted: its melting point
Outgoing: 188 to 191 °C

Incoming: # input compound: Cc1ccccc1CC(C(=O)Nc1nc2cc(Cl)ccc2o1)c1ccc(S(C)(=O)=O)cc1 (centres undefined) ; wanted: its melting point
Outgoing: 184 to 185 °C

Incoming: # input compound: `COc1ccc(OC)c2c1[C@H](C=O)c1ccccc1[C@@H]2C=O` ; wanted: its melting point
Outgoing: 129 to 132 °C

Incoming: # input compound: `Cc1cc(O)c([N+](=O)[O-])c(=O)n1CC(=O)O` ; wanted: its melting point
Outgoing: 205 °C

Incoming: # input compound: `Nc1c(-c2cccc(Oc3ccccc3)c2)c(=O)[nH]c2cc(Cl)ccc12` ; wanted: its melting point
Outgoing: 196 to 197 °C

Incoming: # input compound: COC1(C)c2ccc(C#Cc3cc(Cl)ccc3OCC(=O)O)cc2S(=O)(=O)C1(C)C (centres undefined) ; wanted: its melting point
Outgoing: 80 to 95 °C

----------
MEASURED_QUANTITY: melting point

Solved cases (4 shown):
CCOC(=O)Cc1ccc(NC(=O)C(COC2CCCCO2)NS(=O)(=O)c2ccc(Cl)c([N+](=O)[O-])c2)cc1 (racemic): 108 to 111 °C
COC(=O)Cc1cccc2c1NC(=O)C2: 156 to 157 °C
O=P(O)(O)CNCCc1ccccc1: 148 to 150 °C
CC(C)N1CC(=O)N(C(C)C)CC1=O: 177 to 180 °C

Let us examine a further case.
Incoming: # input compound: `O=C(OC1CCCCCCC1)c1cc2cc(CCl)ccc2oc1=O` ; wanted: its melting point
Outgoing: 169 to 170 °C

----------
Items are presented alongside their recorded melting point.

O=C(NCc1cccs1)c1ccc(Cl)cc1: 153 to 154 °C

Let us examine a further case.
Incoming: # input molecule: CCCCCC(=O)CCC1C(=O)NC(=O)N1CCCCCCC(=O)O (stereo not given) ; wanted: its melting point
Outgoing: 84.5 to 86 °C

----------
Items are presented alongside their recorded melting point.

Solved cases (5 shown):
CC(C)C(NC(=O)OC(C)(C)C)C(=O)NC(C(=O)OCC1OC(n2cc(C=CBr)c(=O)[nH]c2=O)CC1Cl)C(C)C (configuration not stated): 102 to 103 °C
COC(=O)C(=O)c1cc(O)c(O)c(C#N)c1: 252 °C
CS(=O)(=O)c1ccc(Oc2ccc(Br)cc2)cc1: 128 to 129 °C
Nc1nc2cc(-c3cccnc3)ccc2c2c1nc(CO)n2CC1CCOCC1: 260 to 262 °C
CC(=O)NCS[C@@H]1CC(=O)N(Cc2ccc(Oc3ccc(F)cc3)nc2)C1: 94 to 95 °C

Incoming: # input compound: CC(OC1(c2ccccc2F)NOc2c(Cl)cccc21)C(=O)O (configuration not stated) ; wanted: its melting point
Outgoing: 159 to 161 °C

Incoming: # input compound: `N#CC1(C#N)CCOCC1` ; wanted: its melting point
Outgoing: 110 to 112 °C

----------
Items are presented alongside their recorded melting point.

Incoming: # input compound: O=c1[nH]c(=O)n(C2CC(OCc3ccccc3)C(COCc3ccccc3)C2O)cc1I (stereo not given) ; wanted: its melting point
Outgoing: 165 °C

Incoming: # input compound: `Cc1c([N+](=O)[O-])ccc2c1CCN2` ; wanted: its melting point
Outgoing: 169 to 171 °C

Incoming: # input compound: `CC(=O)NC[C@H]1CN(c2ccc(-c3nc(Cn4ccnc4)co3)c(F)c2)C(=O)O1` ; wanted: its melting point
Outgoing: 198 to 200 °C

Incoming: # input compound: `O=C(O)Cc1ccc(CCNC(=O)c2ccccc2)cc1` ; wanted: its melting point
Outgoing: 157 to 158 °C

Incoming: # input compound: `c1ccc(-c2ncc(-c3csc(-c4ccccc4)n3)cn2)cc1` ; wanted: its melting point
Outgoing: 214 to 216 °C

Incoming: # input compound: CCOC(=O)C1=C(C)NC(C)=C(C(=O)OCC)C1c1ccccc1/C=C/C(=O)OC1CCCCC1C (stereo not given) ; wanted: its melting point
Outgoing: 165 to 166 °C

Incoming: # input compound: `COc1cc(NS(=O)(=O)c2ccc(Cl)cc2)c(C(=O)O)cc1OC` ; wanted: its melting point
Outgoing: 168 to 169 °C

----------
Items are presented alongside their recorded melting point.

CC(=O)NC[C@H]1CN(c2ccc(C(=O)c3cnc4cnc(Br)cn34)cc2)C(=O)O1: 216 to 220 °C

Incoming: # input compound: CN(CCCNC(=O)NCCSCc1csc(NC(=N)N)n1)CCC(c1ccccc1)c1ccccn1 (stereo not drawn) ; wanted: its melting point
Outgoing: 95 to 98 °C

Incoming: # input compound: `CCNc1ccc2c(c1)Cc1c-2[nH]c2ccccc12` ; wanted: its melting point
Outgoing: 225 °C

Incoming: # input compound: CCN1c2ccccc2CC(C#N)c2ccccc21 (stereo not drawn) ; wanted: its melting point
Outgoing: 127 to 129 °C

Incoming: # input compound: O=CNCC1CC2C3CC4C2C4C13 (stereo not drawn) ; wanted: its melting point
Outgoing: 225 to 226 °C

----------
Items are presented alongside their recorded melting point.

Solved cases (3 shown):
O=C(O)c1cn(C2CCCCC2)c2c(F)c(F)c(F)cc2c1=O: 261 to 264 °C
CCOC(=O)COc1ccc2c(c1)CCCC2=O: 39 to 41 °C
CC(C)(C)OC(=O)Nc1cccc(Cn2nc(C(=O)O)c3c2-c2ccc(OCc4cncnc4)cc2CC3)c1: 226 °C

Incoming: # input molecule: `CCOC(=O)C(=NOC)c1csc(NC(=O)OCC(Cl)(Cl)Cl)n1` ; wanted: its melting point
Outgoing: 125 to 128 °C

----------
MEASURED_QUANTITY: melting point

Solved cases (5 shown):
OC1=NC2CCCc3cccc(c32)N1 (stereo unspecified): 230 to 233 °C
COc1ccc2c(c1)Sc1c(cc(OC)c(O)c1Br)N2C(=O)OC(C)OC(C)=O (stereo unspecified): 162 to 164 °C
Nc1c(F)c(N2CCC(c3cccnc3)C2)c(F)c2c1c(=O)c(C(=O)O)cn2C1CC1 (stereo unspecified): 250 to 252 °C
CCOC(=O)c1cc2c(Cl)cc(Cl)cc2[nH]1: 180 °C
O=C(NCC1Cc2cc(Cl)cc(-c3ccsc3)c2O1)OCc1ccccc1 (stereo unspecified): 90 to 92 °C

Let us examine a further case.
Incoming: # input compound: `N#Cc1ccc(C(=O)N2CCN(C(=O)[C@@H]3CCCN3S(=O)(=O)c3ccc(Cl)c(CBr)c3Cl)CC2)cc1` ; wanted: its melting point
Outgoing: 115 °C

----------
MEASURED_QUANTITY: melting point

Solved cases (2 shown):
CC(c1oc2ccccc2c(=O)c1-c1cccc(F)c1)n1ncc2c(Cl)ccnc21 (stereo unspecified): 173 to 176 °C
CCOC(=O)C1CCN2C(=O)C(=O)c3cc(Br)cc1c32 (stereo unspecified): 150 to 151 °C

Let us examine a further case.
Incoming: # input molecule: `Cc1cc2c(Cl)c([N+](=O)[O-])cnc2s1` ; wanted: its melting point
Outgoing: 96 to 98 °C

----------
Items are presented alongside their recorded melting point.

Solved cases (6 shown):
O=C1CCCc2ccc(OCCCCN3CCN(c4cccc5ccc(F)cc45)CC3)nc2N1: 202 to 203 °C
CC(=O)NCCSc1ccnc(CSc2nc3ccccc3[nH]2)c1C: 211 to 213 °C
Oc1ccc(-c2nc3cc(O)c(Cl)cc3o2)cc1F: 197 to 199 °C
O=C(O)CCCc1ncccc1NS(=O)(=O)c1ccccc1: 156 to 157 °C
CC1COCc2nc3cnc4cc(C=CS(C)(=O)=O)ccc4c3n21 (stereo unspecified): 249 to 250 °C
CN1C(=O)[C@H](NC(=O)CCc2ccc(C(F)(F)F)cc2)N=C(c2ccccc2)c2ccccc21: 175 to 176 °C

Incoming: # input compound: `Cc1c(NC(=O)c2ccc(OC[C@@H]3CCCO3)cc2)ccc2cc(CN3CCC(C)(O)CC3)[nH]c12` ; wanted: its melting point
Outgoing: 169 °C

Incoming: # input compound: CC1Oc2cc(Cl)ccc2/C1=N\NC(=O)Nc1ccc(C(F)(F)F)cc1 (stereo unspecified) ; wanted: its melting point
Outgoing: 205 to 207 °C

Incoming: # input compound: Cc1cc(N2N=C(c3ccc([N+](=O)[O-])cc3)c3cc4c(cc3CC2C)OCO4)on1 (stereo unspecified) ; wanted: its melting point
Outgoing: 179 to 182 °C

Incoming: # input compound: `O=C(Nc1nnn(CC2CC2)n1)C1c2ccccc2Oc2ccccc21` ; wanted: its melting point
Outgoing: 222 to 224 °C

Incoming: # input compound: `FC(F)(F)c1ccc(-c2cc(Oc3cccc4sccc34)ncn2)cc1` ; wanted: its melting point
Outgoing: 122 °C

Incoming: # input compound: `NC(=O)c1ccc(N2CCN(Cc3cn4cc(Cl)ccc4n3)CC2)cc1` ; wanted: its melting point
Outgoing: 240 to 241 °C

Incoming: # input compound: `Cc1ccc(NC(=O)c2ccccc2)c(C(=O)O)c1` ; wanted: its melting point
Outgoing: 205 to 208 °C

Incoming: # input compound: `Cc1ccc2cccc(OCc3c(Cl)ccc(S(=O)(=O)N4CCC[C@H]4C(=O)NCCCNC(=O)c4ccc(C(N)=NO)cc4)c3Cl)c2n1` ; wanted: its melting point
Outgoing: 120 to 124 °C

Incoming: # input compound: CCOC(=O)C1CC(=O)C(C(=O)CC)C(=O)C1 (stereo unspecified) ; wanted: its melting point
Outgoing: 55 to 56 °C

Incoming: # input compound: CCc1ccc(C(CC(=O)O)C(=O)O)s1 (stereo unspecified) ; wanted: its melting point
Outgoing: 165 to 166 °C

These measurements were taken from a melting point compilation (Tetko et al.; mined from patent text by program, amines drawn as free bases though some values may be those of a salt).
